Recorded Piperacillin MIC + Peptide by entry
System: bacterial isolates
testDescription: microbe, parasite or virus in culture
Assay type: cell-based
setupConditions: S. marcescens 1
Note: unit µg/mL is implicit; provide only the numeric part.

Here is how some sequences turned out for Piperacillin MIC + Peptide.
>  <residueCodes>
ILRWVWWVWRRK [MBI 11F4CN]

>  <measuredResult>
64

$$$$
>  <residueCodes>
KKWWRRALQGLKTAGPAIQSVLNK [MBI 21A2]

>  <measuredResult>
16

$$$$
>  <residueCodes>
ILKKWPWWPWRR [MBI 11G7CN]

>  <measuredResult>
16

$$$$
>  <residueCodes>
ILRWPWWPWRRK [MBI 11B7CN]

>  <measuredResult>
8

$$$$

// moving on: another record for Piperacillin MIC + Peptide
Param item = KWKSFIKKLTSAAKKVVTTAKPLISS [MBI 26] ; retrieve measured Piperacillin MIC + Peptide.
32
